# Tested on: ULK1
# experimental.context: concentration: 1 μM, replicates: in singlicate; n = 1;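 also: KINOMEscan kinase panel screen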
Short version: %Inh at least 2% is rule met, less is rule not met.

> print(dat)
                                 smiles.code  assay.target  assigned.category
 1  c1ccc(Oc2ccc(Nc3ccnc4cc(-c5ccc(CN6CCCCC6)o5)ccc34)cc2)nc1          ULK1       rule not met
 2  Cc1ccc(Nc2ccnc(Nc3ccc(C)c(F)c3)n2)cc1O.Cl          ULK1           rule met
 3  CC(C)(C)c1ccc(C(=O)Nc2cn3cc(-n4ccnc4)ccc3n2)cc1          ULK1       rule not met
 4  CCNC(=O)/C=C/c1n[nH]c2cc(Sc3ccccc3C(=O)NC)ccc12          ULK1           rule met
 5  N#Cc1cnc2cc(-c3cnc(CNCCN4CCOCC4)s3)ccc2c1Nc1ccc(Oc2ccccc2)cc1          ULK1           rule met
 6  Cc1cc(-c2c(-c3ccc(F)cc3)ncn2CCCN2CCOCC2)nc(N)n1          ULK1           rule met
 7   O=C1NC(=O)C(c2ccccc2Cl)=C1Nc1cccc(Cl)c1          ULK1           rule met
 8  Cl.N#CCc1ccc(Nc2nccc(Nc3ccc(Oc4ccccc4)cc3)n2)cc1          ULK1           rule met
 9  COC(=O)Nc1nc2cc(Oc3ccc(NC(=O)Nc4cccc(SC)c4)cc3)ccc2[nH]1.Cl          ULK1           rule met
10  COc1ccc(C)c(Nc2ccnc(Nc3ccc(-c4cnc[nH]4)cc3)n2)c1.Cl          ULK1       rule not met
11           Nc1cccc(-c2ccc3c(N)n[nH]c3c2)c1          ULK1           rule met
12  COc1cccc2c(-c3ccncc3)c(-c3ccc(F)cc3)nn12          ULK1           rule met
13    O=C(Nc1n[nH]c2nc(-c3ccccc3)ccc12)C1CC1          ULK1           rule met
14  CN(c1ccc(NC(=O)N2CCN(CCCN3CCOCC3)CC2)cc1)c1ccnc(Nc2ccc(CS(C)(=O)=O)cc2)n1.Cl          ULK1       rule not met
15  Cc1ccc(C)c(NC(=O)Nc2ccc(C)c(-c3ccc(C(=O)Nc4ccncc4)cc3)c2)c1          ULK1           rule met
16  Cn1cc(-c2cnc(N)c3c(-c4ccc5c(c4)CCN5C(=O)Cc4ccccc4)csc23)cn1          ULK1       rule not met
17  COc1cccc(CC(=O)N2CCc3cc(-c4cn(C)c5ncnc(N)c45)ccc32)c1          ULK1           rule met

----------
# Test system: ACVR2B
# experimental.context: concentration: 1 μM, replicates: in singlicate; n = 1
Sorting guide: entries reporting %Inh beneath 8% go in the true pile, the rest go in the false pile.

> print(dat)
                                   compound  assigned.category
1  Cc1ccc(NC(=O)c2ccc(Cl)c(Cl)c2)cc1-c1ccc(C(=O)Nc2ccncc2)cc1 [GSK1398460]               true
2  Cc1ccc(NC(=O)c2cccc(N3CCCCC3)c2)cc1-c1ccc(C(=O)NCC2CC2)cc1 [GSK1917008]              false
3  COc1cccc(-c2nc(-c3ccccc3)[nH]c2-c2ccncc2)c1 [SB-610250]               true
4  Cc1cccc(Nc2nc(N[C@H]3CCCC[C@H]3N)ncc2C(N)=O)c1.Cl [GSK986310]              false

----------
// reported %Inh for each item listed
# Test system: TAOK3
# experimental.context: concentration: 1 μM, replicates: in singlicate; n = 1
observation.type: %Inh (%)

> print(dat)
                                smiles.code  units  assay.value
1  Cc1ccc(C)c(NC(=O)Nc2ccc(C)c(-c3ccc(C(=O)Nc4ccncc4)cc3)c2)c1      %            0
2  CN(c1ccc2c(c1)nc(NCc1ccccc1)n2C)c1ccnc(Nc2ccc(CS(C)(=O)=O)cc2)n1.Cl      %            0
3  CN(C)CCOc1ccc(-c2cc(-c3ccc(Cl)c(O)c3)c(-c3ccncc3)[nH]2)cc1.Cl.Cl      %            0
4  Cl.N#CCc1ccc(Nc2nccc(Nc3ccc(Oc4ccccc4)cc3)n2)cc1      %            0
5  CCNC(=O)/C=C/c1n[nH]c2cc(Sc3ccccc3C(=O)NC)ccc12      %            8
6  COC(=O)Nc1nc2ccc(Oc3ccc(NC(=O)Nc4cc(C(F)(F)F)ccc4F)cc3)cc2[nH]1.Cl      %            6
7  CCn1c(-c2nonc2N)nc2c(-c3ccccc3)ncc(OCCCN)c21.O=C(O)C(F)(F)F.O=C(O)C(F)(F)F      %            0
8  O=C(Nc1c(F)cccc1F)c1cc(C(=O)c2ccccc2F)c[nH]1      %            0

----------
# Tested on: HIPK3
# experimental.context: concentration: 1 μM, replicates: in singlicate; n = 1
observation.type: %Inh (%)

> print(dat)
                                    compound  assay.value
 1  CCOc1nccc(-c2c(-c3ccc(F)cc3)ncn2C2CCNCC2)n1           44
 2  CCn1c(-c2nonc2N)nc2c(-c3ccccc3)ncc(OCCCN)c21.O=C(O)C(F)(F)F.O=C(O)C(F)(F)F           38
 3  COc1cc(Nc2nccc(N3CCC(NC(=O)Nc4ccc5c(c4)OCO5)C3)n2)cc(OC)c1OC (centres unmarked)           16
 4           Nc1cccc(-c2ccc3c(N)n[nH]c3c2)c1          100
 5  CC(C)NCC(Cc1ccccc1)NC(=O)c1cc(Br)c(-c2ccnc3[nH]ccc23)s1.Cl.Cl (centres unmarked)           35
 6  O=C(O)C(F)(F)F.O=c1[nH]ccc2nc(N[C@@H]3CCNC3)nc(Nc3ccc4c(c3)S(=O)(=O)CC4)c12         93.3
 7  COc1cccc(NC(=O)NCCNc2ccnc(Nc3ccc(F)cc3)n2)c1            7
 8  COC(=O)Nc1nc2ccc(Oc3ccc(CC(=O)Nc4cc(C(F)(F)F)ccc4F)cc3)cc2[nH]1            0
 9  CN(c1ccc(NC(=O)Nc2cccc(Cl)c2)cc1)c1ccnc(N)n1.Cl            0
10  COc1cccc(C2=C(Nc3cccc(O)c3)C(=O)NC2=O)c1           29
11  O=C(Nc1c(F)cccc1F)c1cc(C(=O)c2ccccc2F)c[nH]1            0
12  Cc1cccc(Nc2nc(N[C@H]3CCCC[C@H]3N)ncc2C(N)=O)c1.Cl           21
13  CN(c1ccc(F)c(NC(=O)c2cccc(OC(C)(C)C#N)c2Cl)c1)c1ccc2nc(NC(=O)C3CC3)sc2n1            0
14  COc1cc(Nc2nccc(N3CCC(NS(=O)(=O)c4ccc(NC(C)=O)cc4)CC3)n2)cc(OC)c1OC           15
15  Cl.O=C(Nc1ccc(Oc2ccc3[nH]c(NC(=O)c4ccco4)nc3c2)cc1)Nc1cc(C(F)(F)F)ccc1F           11
16    O=C(Nc1n[nH]c2nc(-c3ccccc3)ccc12)C1CC1            0
17  Cn1cc(-c2cnc(N)c3c(-c4ccc5c(c4)CCN5C(=O)Cc4ccccc4)csc23)cn1            7

----------
// reported %Inh for each item listed
# System: NEK2
# experimental.context: concentration: 1 μM, replicates: in singlicate; n = 1
observation.type: %Inh (%)

> print(dat)
                                    molecule  assay.target  assay.value
 1  CS(=O)(=O)c1cccc(CNc2nc(Nc3ccc4c(c3)CCC(=O)N4)ncc2C(F)(F)F)c1          NEK2            0
 2  Cc1ccc(O)cc1Nc1ccnc2ccc(C(C)(C)C)cc12 [GW856805]          NEK2            9
 3  Cc1ccc(NC(=O)c2ccc(Cl)c(Cl)c2)cc1-c1ccc(C(=O)Nc2ccncc2)cc1 [GSK1398460]          NEK2            2
 4  Cn1cc(-c2ccc3c(c2)CCN3C(=O)Cc2cc(F)cc(C(F)(F)F)c2)c2c(N)ncnc21 [GSK2635225]          NEK2           18
 5  CN(c1ccc(NC(=O)N2CCN(CCCN3CCOCC3)CC2)cc1)c1ccnc(Nc2ccc(CS(C)(=O)=O)cc2)n1.Cl [GW830899]          NEK2           14
 6  CC(C)(C)c1ccc(C(=O)Nc2cn3cc(-n4ccnc4)ccc3n2)cc1          NEK2            0
 7  Cc1ccc(NC(=O)c2ccnc(N3CCCCC3)c2)cc1-c1ccc(C(=O)NCC2CC2)cc1 [GW775610]          NEK2            0
 8  Nc1ncc(-c2ccc3nccc(-c4ccncc4)c3c2)cc1S(=O)(=O)N1CCCCC1 [GSK1693850]          NEK2            8
 9  Fc1cc(Cl)ccc1Nc1ccnc2cc(-c3ccc(CN4CCSCC4)o3)ccc12 [GW560106]          NEK2            1
10  Cc1ccc(C)c(NC(=O)Nc2ccc(C)c(-c3ccc(C(=O)Nc4ccncc4)cc3)c2)c1 [GSK1398473]          NEK2            1
11  N#CC1(c2cccc(C(=O)Nc3cccc(Oc4ccc5nc(NC(=O)C6CC6)sc5n4)c3)c2)CC1          NEK2            0
12  Cl.O=C(Nc1ccc(Oc2ccc3[nH]c(NC(=O)c4ccco4)nc3c2)cc1)Nc1cc(C(F)(F)F)ccc1F [GW683134]          NEK2            2
13  CC(C)c1nc(-c2ccc(F)c(NS(=O)(=O)c3c(F)cccc3F)c2)c(-c2ccnc(Nc3ccc(N4CCOCC4)nc3)n2)s1 [GSK1804250]          NEK2           31
14  COc1cc(Nc2ccnc3cc(-c4ccncc4)ccc23)cc(OC)c1OC.Cl [GW494610]          NEK2            0
15  COc1cccc(C2=C(Nc3cccc(O)c3)C(=O)NC2=O)c1 [SB-390771]          NEK2            0
16  O=C(O)C(F)(F)F.O=c1[nH]ccc2nc(N[C@@H]3CCNC3)nc(Nc3cc(Cl)cc(Cl)c3)c12 [GSK2188764]          NEK2           23
17  COc1cc(Nc2nccc(N3CCC(NS(=O)(=O)c4ccc(NC(C)=O)cc4)CC3)n2)cc(OC)c1OC [GSK1379825]          NEK2            1
18  Cc1ccc(-c2ccc3occ(-c4ccc(S(C)=O)cc4)c3c2)nn1 (stereo not shown)          NEK2            0
19  CC(C)NCC(Cc1ccccc1)NC(=O)c1cc(Br)c(-c2ccnc3[nH]ccc23)s1.Cl.Cl (stereo not shown) [GSK1383281]          NEK2           13
20  COc1cccc(-c2nc(-c3ccccc3)[nH]c2-c2ccncc2)c1 [SB-610250]          NEK2            0
21  COc1cccc(NC(=O)NCCNc2ccnc(Nc3ccc(F)cc3)n2)c1 [GSK1379879]          NEK2            0
22  Cc1ccccc1CC(=O)N1CCc2cc(-c3cn(C)c4ncnc(N)c34)ccc21 [GSK2603346]          NEK2           97
23  Cc1cccc(Nc2nc(N[C@H]3CCCC[C@H]3N)ncc2C(N)=O)c1.Cl [GSK986310]          NEK2           15
24  Cl.N#CCc1ccc(Nc2nccc(Nc3ccc(Oc4ccccc4)cc3)n2)cc1 [GW639905]          NEK2            5
25  Cc1cc(-c2ccnc(Nc3cccc(C#N)c3)n2)cc(C)c1O [GSK1440913]          NEK2            0
26  O=C(Nc1n[nH]c2nc(-c3ccccc3)ccc12)C1CC1 [SB-708999]          NEK2            0
27   CCn1cnc2c(NCc3ccccc3)ncnc21 [SKF-96418]          NEK2            0
28  Cn1cc(-c2ccc3c(c2)CCN3C(=O)Cc2cc(F)cc(F)c2F)c2c(N)ncnc21 [GSK2634140]          NEK2           84
29  CCNc1nccc(-c2c(-c3ccc(F)cc3)ncn2C2CCN(C)CC2)n1          NEK2            0
30  Cl.Cl.NC(CNC(=O)c1cc(Br)c(-c2ccnc3[nH]ccc23)s1)c1ccccc1 (stereo not shown) [GSK1322949]          NEK2            0
31  O=C1NC(=O)C(c2ccccc2Cl)=C1Nc1cccc(Cl)c1 [SB-342409]          NEK2           10
32  Cc1nn2c(=O)cc(N3CCO[C@H](C)C3)nc2n1Cc1cccc(Cl)c1Cl [GSK2373693]          NEK2           18
33  Cc1cccc(Nc2nc(NCCN)ncc2C(N)=O)c1 [GSK1292139]          NEK2            0
34  CN(c1ccc(F)c(NC(=O)c2cccc(OC(C)(C)C#N)c2Cl)c1)c1ccc2nc(NC(=O)C3CC3)sc2n1          NEK2            0

Provenance of the data: paper PMC5540273
